- method.description: A2780 Cisplatin Sensitive Ovarian Cancer Cell Toxicity qHTS against the NCATS CANVASS Library (AID 1347353); also: nearly all actives have a fitted effect of over 60% in size
- stated.conditions: A2780 ovarian cancer viability, ATPLite luminescence, 72 h; series mostly up to 46.1 µM
- Description: Natural products and their derivatives continue to be wellsprings of nascent therapeutic potential. […] To address this issue, the Canvass library of natural products was assembled (https://tripod.nih.gov/canvass), in collaboration with academic and industry researchers, for quantitative high-throughput screening (qHTS) across a diverse set of cell-based and biochemical assays. […]
Results filed as inconclusive are left out. Activity calls are given as the source filed them. Calls follow the shape of the dose curve; as a rule, active = well fitted cell-killing curve with a large enough effect; inconclusive = small, poorly fitted or top-dose-only effect; inactive = flat fitted curve, though single readings scatter.
Returns: one label drawn from active, inactive

Answered cases to consult:
{"compound": "CC(O)/C=C/C1(O)C(C)(C)CC(O)CC1(C)O (centres undefined)", "assigned.class": "inactive"}
{"compound": "Cc1cc(O)cc2oc(C[C@H](C)O)cc(=O)c12", "assigned.class": "inactive"}
{"compound": "C[C@@H](CCC[C@]1(C)C(=O)C=C[C@]23C[C@H]4C[C@H](O[C@@]4(C)C2)C31)C(=O)N[C@@H](CO)C(=O)O (some centres undefined)", "assigned.class": "inactive"}
{"compound": "OCc1ccc2ocnc2c1", "assigned.class": "inactive"}
{"compound": "C[C@H]1C[C@@H]([C@@H]2CC[C@]34O[C@H](CC[C@@]35C[C@H](C)C(=O)O5)CN24)OC1=O", "assigned.class": "inactive"}
{"compound": "C/C1=C\\CC(=O)/C=C/C=C\\c2csc(n2)[C@@H](C)NC(=O)C[C@@](S)([C@@H](C)C(=O)O)CC1", "assigned.class": "inactive"}
{"compound": "CC(C)=CCC[C@@H](C)[C@@H]1CC[C@@]2(C)C[C@H]3C(C)=CC(=O)[C@@H]3/C(C=O)=C\\C[C@H]12", "assigned.class": "active"}
{"compound": "C=C(C)C(=O)O[C@H]1C[C@H](C)[C@@H](OC(C)=O)CC[C@@]2(C)O[C@@H]2[C@H]2OC(=O)C(COC(C)=O)=C12", "assigned.class": "active"}

# outcome recorded in this test, key = `CC(=O)[C@@H]1[C@@H](O)C[C@H]2[C@]3(C)CC[C@H]4C(C)(C)CCC[C@]4(CO)[C@H]3C[C@H]3OC(=O)[C@@H]1[C@@]32C` inactive
